test system: Ps. aeruginosa 2; assay: minimal inhibitory concentration (MIC), agar streak test; type: cell-based; settings: Pseudomonas aeruginosa, heart infusion agar, 37° C., 20 hours, 10^8 viable cells per ml
readout: MIC (µg/mL)

Example entries and their recorded answers appear below.
compound: CCO/N=C(\C(=O)NC1C(=O)N2C(C(=O)[O-])=C(C[n+]3ccc(CO)cc3)CSC12)c1nsc(N)n1 (centres unmarked)
readout value: 12.5

compound: CCO/N=C(\C(=O)NC1C(=O)N2C(C(=O)[O-])=C(C[n+]3cccc(Cl)c3)CSC12)c1nsc(N)n1 (centres unmarked)
readout value: 6.25

compound: CCO/N=C(\C(=O)NC1C(=O)N2C(C(=O)[O-])=C(C[n+]3cc(C)cc(C)c3)CSC12)c1nsc(N)n1 (centres unmarked)
readout value: 6.25

(1) CCO/N=C(\C(=O)NC1C(=O)N2C(C(=O)[O-])=C(C[n+]3cccc(CO)c3)CSC12)c1nsc(N)n1 (centres unmarked)
(2) CCO/N=C(\C(=O)NC1C(=O)N2C(C(=O)[O-])=C(C[n+]3ccc(CCCO)cc3)CSC12)c1nsc(N)n1 (centres unmarked)
Please tell me which of the two, 1 or 2 , has the higher reported MIC value. Answer by stating the label of the chosen item.
2

Reference for the values: patent US4457928A
